// data source = patent US6692880B2

Listed here: items and their measured Fresh Developer 10 min exercise (charge values).
test: Charge per mass of developers after exercise periods, MECCA device; assay type: physicochemical; conditions: 0.2 pph added acid; clear polyester toner, Binder C resin, 2 pph Bontron E-84
parameter.measured: Fresh Developer 10 min exercise (charge values) (μC/g)

{"chemical.smiles": "CCCCCCCCCCCC(=O)O", "obs.value": "−88.1"}
{"chemical.smiles": "C=C(CC(=O)O)C(=O)O", "obs.value": "−63.1"}
{"chemical.smiles": "O=C(O)CCCC(=O)O", "obs.value": "−66.2"}
{"chemical.smiles": "O=C(O)c1ccc(C(=O)O)cc1", "obs.value": "−58.9"}
{"chemical.smiles": "O=C(O)c1ccccc1O", "obs.value": "−65.5"}
{"chemical.smiles": "Nc1ccc(C(=O)O)cc1", "obs.value": "−78.1"}

====

The molecules listed here are annotated with their Rebuilt developer 2 min shake (charge values).
experiment: Charge per mass of developers after exercise periods, MECCA device; type: physicochemical; settings: 1 pph added acid; clear polyester toner, Binder C resin, 2 pph Bontron E-84
parameter.measured: Rebuilt developer 2 min shake (charge values)

{"chemical.smiles": "O=C(O)CCCC(=O)O", "obs.value": "−15.6 μC/g"}
{"chemical.smiles": "O=C(O)c1ccccc1O", "obs.value": "−25.5 μC/g"}
{"chemical.smiles": "Nc1ccc(C(=O)O)cc1", "obs.value": "−56.8 μC/g"}
{"chemical.smiles": "CCCCCCCCCCCC(=O)O", "obs.value": "−69.6 μC/g"}
{"chemical.smiles": "O=C(O)c1ccc(C(=O)O)cc1", "obs.value": "−34.4 μC/g"}
{"chemical.smiles": "C=C(CC(=O)O)C(=O)O", "obs.value": "−10.2 μC/g"}
